- system: SAMHD1 T592E (Homo sapiens, UniProt Q9Y3Z3 1-626, T592E)
- Sequence (Q9Y3Z3 whole entry T592E): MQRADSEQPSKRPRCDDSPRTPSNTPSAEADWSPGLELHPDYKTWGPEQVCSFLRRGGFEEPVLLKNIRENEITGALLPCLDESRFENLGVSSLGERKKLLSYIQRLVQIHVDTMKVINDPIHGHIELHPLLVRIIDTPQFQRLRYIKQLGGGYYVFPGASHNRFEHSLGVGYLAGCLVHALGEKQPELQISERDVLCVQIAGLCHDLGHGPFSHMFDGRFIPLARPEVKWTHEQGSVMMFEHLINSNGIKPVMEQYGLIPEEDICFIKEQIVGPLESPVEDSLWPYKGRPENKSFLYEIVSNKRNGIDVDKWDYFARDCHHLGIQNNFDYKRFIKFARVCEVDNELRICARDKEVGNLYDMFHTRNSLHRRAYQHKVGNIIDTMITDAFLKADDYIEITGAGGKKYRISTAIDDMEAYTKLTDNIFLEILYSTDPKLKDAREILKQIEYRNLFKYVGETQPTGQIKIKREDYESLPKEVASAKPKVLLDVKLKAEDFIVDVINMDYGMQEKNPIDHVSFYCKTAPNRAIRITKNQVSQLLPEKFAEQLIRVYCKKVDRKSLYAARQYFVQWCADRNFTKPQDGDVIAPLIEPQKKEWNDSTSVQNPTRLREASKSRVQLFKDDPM
- testProtocol: fluorescence anisotropy
propertyName: Kd (nM)
One number for each entry, in nM.

>  <binder>
CGCCT (XNA, phosphorothioate at every internucleotide linkage, mixed Rp/Sp) [5'FAM-PsDNA5]

>  <Kd, nM>
283

$$$$

The binder identified as 5'FAM-ssDNA57 (ssDNA) DNA: TGGAGAATCCCGGTGCCGAGGCCGCTCAATTGGTCGTAGACAGCTCTAGCACCGCTT registered its Kd at 431
